Reported IC50 values follow for various molecules
- MEASURED ON: Aldo-keto reductase family 1 member B1 (Rattus norvegicus)
- ASSAY PROCEDURE: biochemical
- Type: tissue-based, Lens of camera-type eye
- CONDITION: read-out: IC50
Give the value, in units of µM, as a plain number.

CC1=C(CC(=O)O)c2cc(F)ccc2/C1=C\c1ccc([S+](C)[O-])cc1 (configuration not stated) | 0.435

Please examine the following record next.
QUERY: Quick one: IC50 of COc1ccc2c(c1)c(CC(=O)O)c(C)n2C(=O)c1ccc(Cl)cc1 [INDOMETHACIN] ?
RESULT: 3.63

----------
- MEASURED ON: Mitogen-activated protein kinase 1 (Homo sapiens, UniProt P28482)
- Sequence (P28482 whole entry): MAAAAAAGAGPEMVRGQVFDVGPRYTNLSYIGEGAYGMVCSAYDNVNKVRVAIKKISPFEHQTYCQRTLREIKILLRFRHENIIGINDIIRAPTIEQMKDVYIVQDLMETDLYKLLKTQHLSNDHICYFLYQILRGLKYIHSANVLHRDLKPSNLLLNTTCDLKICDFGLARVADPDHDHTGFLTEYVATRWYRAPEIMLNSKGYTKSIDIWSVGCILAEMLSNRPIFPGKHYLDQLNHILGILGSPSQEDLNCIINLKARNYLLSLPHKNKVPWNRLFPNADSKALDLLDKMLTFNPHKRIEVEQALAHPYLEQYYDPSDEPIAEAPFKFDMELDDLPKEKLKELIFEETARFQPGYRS
- ASSAY PROCEDURE: DRUGMATRIX: Protein Serine/Threonine Kinase, ERK2 enzyme inhibition (substrate: Myelin Basic Protein)
- Parameters: species or system Escherichia coli
- CONDITION: Not Active = under 50% inhibition at 10 µM
QUANTITY MEASURED: IC50

N[C@H](CSC(=S)NCc1ccccc1)C(=O)O | Not Active
C[C@H]1O[C@@H](O[C@H]2[C@@H](O)C[C@H](O[C@H]3[C@@H](O)C[C@H](O[C@H]4CC[C@@]5(C)[C@H](CC[C@@H]6[C@@H]5CC[C@]5(C)[C@@H](C7=CC(=O)OC7)CC[C@]65O)C4)O[C@@H]3C)O[C@@H]2C)C[C@H](O)[C@@H]1O [DIGITOXIN] | Not Active
COc1cc2c(c3oc(=O)c4c(c13)CCC4=O)[C@@H]1C=CO[C@@H]1O2 [AFLATOXIN] | Not Active
